Attribution: a protein production outcome set (Wang et al. 2014)

- procedure-details: label from the status in PepcDB records
reported-metric: protein production

Check out these entries, answers already filled in.
# seq, reported-measurement
data = [
    ("YTFIGNSPVPKSYSLSEMRDAFIKFFEKRGHKFLKPYPVVPRWREDVLLVNASIYDFQPHVTSGIVRPPGNPIVMSQPSIRMNDVDLVGITGRHLTSFEMLCHDSFNTKDKTVYWKEETVHYCYDFLTEGLGIDGKLISFKEKPWSGGGNAGNALEVFVRGLEVATLVFMDMKEDPNGPYEIDGIRYSKMDMRIVDTGYGLERLTWLSQGTPTVYQAIYPDIIQHVMKNSSVSDIDEEFLSEVVKASVMKEP", "failed"),
    ("MNTMEEKYILSDRGKVYYWIKESNSVFAKNLIFLPGLTANHHLFDFQIQYFSKNHNVLVWDAPAHGKSRPYLDFSYSNLVEELKVILDKQNMKKVVLIGQSAGGFVAQSFIVKYPNMVEGLMMIGTCPYGTDYYSKSDIFWLKQTEWMLKLFPDKLLRNIISKMCGATSEGRRSMLKMLEGYEKKELCHLMYLGFAGFIPEIQDLNIHCPVCLVVGDKDKTGKVRKYNEQWHNKTGYPLHIIKNASHNVNVDKPNELNQIMDIFIKQLN", "not failed"),
    ("MRQFQRLANDGLKSCPPKSGCPMHILFIGYGKTSQRIAKHLFAQGHQITAVSRHPKPQDFVTHLTQDIHQLNLDQCSPIDWVYVLLAPENSDAQSYKHTYLDSVQPIARALATHPVKRVVVVSSTRVYGQQQAGEIVNDQTIAKPVDQQGAYLLEMEEAWQNAFAEHCTIIRPSGIYGNSISRMVKLAKNTTEYPVIHYSNRIHIEDLARFLAFMTQMPCCQPSYLISDGHPYPLHEIILWFQKQLALPQLVLQSDSVTGKRIVPVNFLTTGFELQAEDCFEIYGNLLRSVDT", "failed"),
    ("MTDYASLLMSLTSGSALDSGCMEQLIQEGLYVTPALFSVDRAALWVLDKDEQAYLCEADFFDGMIDHRSSQRLTKKEDAELFSFLESTSEIIINNYFTYESFGLNTSRILSRFQLCSLLLIPLQIKGENRGFIFLGDSQKNIEWSPDVLFASRILVQLFERALLALDNSVAETKLQHQYQLMSEIEKLAK", "failed"),
]

If you can, please state the reported protein production value of MTRDLAPALQALSPLLGSWAGRGAGKYPTIRPFEYLEEVVFAHVGKPFLTYTQQTRAVADGKPLHSETGYLRVCRPGCVELVLAHPSGITEIEVGTYSVTGDVIELELSTRADGSIGLAPTAKEVTALDRSYRIDGDELSYSLQMRAVGQPLQDHLAAVLHRQR .
not failed

Which protein production is reported for this sequence? MVKDLSDMSLKELWQLFPIFLVEHKEEWEDWYEEEKERLLHLLPSQSIKSISHIGSTAVPDIWAKNIVDILLEVPEKEDLQDFKKRLLDAGYLLMSEGEKRLSFNKGYTKDGFAEKVFHLHLRYQGDNDELYFRDYLREYPEVAKDYERLKLGLWEKYEHNRDAYTDAKSDFIRKYTQKAKKNDKGKDN
not failed
